System: NCI-H596
Test: relative viability (nuclei count vs DMSO), 5 days (fraction); higher = more cells survive
Settings: first compound 2 µM
reported-property: relative viability

Record excerpt, results attached:
# compound, reported-result
rows = [
    ("COCC1(CO)C(=O)C2CCN1CC2 (stereo unspecified) [PRIMA-1MET] + CCNC(=O)c1noc(-c2cc(C(C)C)c(O)cc2O)c1-c1ccc(CN2CCOCC2)cc1 [Luminespib] (partner 0.01 µM)", 0.858),
    ("COCC1(CO)C(=O)C2CCN1CC2 (stereo unspecified) [PRIMA-1MET] + CC1(C)CCC(c2ccc(Cl)cc2)=C(CN2CCN(c3ccc(C(=O)NS(=O)(=O)c4ccc(N[C@H](CCN5CCOCC5)CSc5ccccc5)c(S(=O)(=O)C(F)(F)F)c4)cc3)CC2)C1 [Navitoclax] (partner 0.5 µM)", 1.01),
    ("COCC1(CO)C(=O)C2CCN1CC2 (stereo unspecified) [PRIMA-1MET] + Nc1nc2[nH]cc(CCc3ccc(C(=O)N[C@@H](CCC(=O)O)C(=O)O)cc3)c2c(=O)[nH]1 [Pemetrexed] (partner 0.2 µM)", 0.531),
    ("COCC1(CO)C(=O)C2CCN1CC2 (stereo unspecified) [PRIMA-1MET] + NC(=O)Nc1cc(-c2cccc(F)c2)sc1C(=O)N[C@H]1CCCNC1 [AZD7762] (partner 0.2 µM)", 0.884),
    ("COCC1(CO)C(=O)C2CCN1CC2 (stereo unspecified) [PRIMA-1MET] + N=C(N)NC(=N)NCCc1ccccc1 [Phenformin] (partner 250 µM)", 0.622),
]

Now consider the entry below.
Enquiry: Report relative viability for COCC1(CO)C(=O)C2CCN1CC2 (stereo unspecified) [PRIMA-1MET] + CC(C)C[C@H](NC(=O)[C@H](Cc1ccccc1)NC(=O)c1cnccn1)B(O)O [Bortezomib] (partner 0.002 µM) please.
Return: 0.803

----------
Tested on: NCI-H650
Test: relative viability (nuclei count vs DMSO), 5 days (fraction); higher = more cells survive
Conditions: first compound 2.53 µM
reported-property: relative viability
Returns: the value as a bare number; no unit string appended.

Record excerpt, results attached:
# compound, reported-result
measured = [
    ("COc1nc(C)cnc1NS(=O)(=O)c1cccnc1-c1ccc(-c2nnco2)cc1 [Zibotentan] + N=C(N)NC(=N)NCCc1ccccc1 [Phenformin] (partner 250 µM)", 0.461),
    ("COc1nc(C)cnc1NS(=O)(=O)c1cccnc1-c1ccc(-c2nnco2)cc1 [Zibotentan] + Cc1nc(NC(=O)N2CCC[C@H]2C(N)=O)sc1-c1ccnc(C(C)(C)C(F)(F)F)c1 [Alpelisib] (partner 2 µM)", 1.16),
    ("O=c1cc(-c2cccc3c2Sc2ccccc2S3)oc(N2CCOCC2)c1 + Nc1nc2[nH]cc(CCc3ccc(C(=O)N[C@@H](CCC(=O)O)C(=O)O)cc3)c2c(=O)[nH]1 [Pemetrexed] (partner 0.2 µM)", 0.74),
    ("COc1nc(C)cnc1NS(=O)(=O)c1cccnc1-c1ccc(-c2nnco2)cc1 [Zibotentan] + Cc1nc(Nc2ncc(C(=O)Nc3c(C)cccc3Cl)s2)cc(N2CCN(CCO)CC2)n1 [Dasatinib] (partner 0.075 µM)", 0.468),
    ("O=c1cc(-c2cccc3c2Sc2ccccc2S3)oc(N2CCOCC2)c1 + C[C@]1(O)C[C@@H](c2nc(-c3ccc4ccc(-c5ccccc5)nc4c3)c3c(N)nccn32)C1 [Linsitinib] (partner 1 µM)", 0.642),
]

Enquiry: Report relative viability for COc1nc(C)cnc1NS(=O)(=O)c1cccnc1-c1ccc(-c2nnco2)cc1 [Zibotentan] + CC(=O)c1c(C)c2cnc(Nc3ccc(N4CCNCC4)cn3)nc2n(C2CCCC2)c1=O [Palbociclib] (partner 0.5 µM) please.
Return: 0.355

Enquiry: O=c1cc(-c2cccc3c2Sc2ccccc2S3)oc(N2CCOCC2)c1 + CS(=O)(=O)N1CCN(Cc2cc3nc(-c4cccc5[nH]ncc45)nc(N4CCOCC4)c3s2)CC1 [Pictilisib] (partner 1 µM) ?
Return: 0.806

Enquiry: O=c1cc(-c2cccc3c2Sc2ccccc2S3)oc(N2CCOCC2)c1 + C[C@@H](Oc1cc(-c2cnn(C3CCNCC3)c2)cnc1N)c1c(Cl)ccc(F)c1Cl [Crizotinib] (partner 1 µM) ?
Return: 0.58

----------
Each entry below carries its reported relative viability.
Tested on: Calu-6
Assay: relative viability (nuclei count vs DMSO), 5 days (fraction); higher = more cells survive
Settings: first compound 0.8 µM
Returns: the value as a bare number; no unit string appended.

# compound, reported-result
rows = [
    ("COc1nc(C)cnc1NS(=O)(=O)c1cccnc1-c1ccc(-c2nnco2)cc1 [Zibotentan] + O=C(c1cc(Cc2n[nH]c(=O)c3ccccc23)ccc1F)N1CCN(C(=O)C2CC2)CC1 [Olaparib] (partner 8 µM)", 0.621),
    ("COc1nc(C)cnc1NS(=O)(=O)c1cccnc1-c1ccc(-c2nnco2)cc1 [Zibotentan] + C[C@]1(O)C[C@@H](c2nc(-c3ccc4ccc(-c5ccccc5)nc4c3)c3c(N)nccn32)C1 [Linsitinib] (partner 1 µM)", 0.966),
]

Enquiry: Report relative viability for O=c1cc(-c2cccc3c2Sc2ccccc2S3)oc(N2CCOCC2)c1 + CC(C)C[C@H](NC(=O)[C@H](Cc1ccccc1)NC(=O)c1cnccn1)B(O)O [Bortezomib] (partner 0.002 µM) please.
Return: 1.01

Enquiry: COc1nc(C)cnc1NS(=O)(=O)c1cccnc1-c1ccc(-c2nnco2)cc1 [Zibotentan] + Cc1nc(NC(=O)N2CCC[C@H]2C(N)=O)sc1-c1ccnc(C(C)(C)C(F)(F)F)c1 [Alpelisib] (partner 2 µM) ?
Return: 0.98

----------
Tested on: NCI-H2023
Assay: relative viability (nuclei count vs DMSO), 5 days (fraction); higher = more cells survive
Settings: first compound 0.253 µM
reported-property: relative viability

Record excerpt, results attached:
# compound, relative viability
data = [
    ("COc1nc(C)cnc1NS(=O)(=O)c1cccnc1-c1ccc(-c2nnco2)cc1 [Zibotentan] + O=C(c1cc(Cc2n[nH]c(=O)c3ccccc23)ccc1F)N1CCN(C(=O)C2CC2)CC1 [Olaparib] (partner 8 µM)", 0.415),
    ("O=c1cc(-c2cccc3c2Sc2ccccc2S3)oc(N2CCOCC2)c1 + N=C(N)NC(=N)NCCc1ccccc1 [Phenformin] (partner 250 µM)", 0.484),
    ("O=c1cc(-c2cccc3c2Sc2ccccc2S3)oc(N2CCOCC2)c1 + Cc1cc(Nc2cc(N3CCN(C)CC3)nc(Sc3ccc(NC(=O)C4CC4)cc3)n2)n[nH]1 [Tozasertib] (partner 0.1 µM)", 0.295),
    ("O=c1cc(-c2cccc3c2Sc2ccccc2S3)oc(N2CCOCC2)c1 + Nc1ncn([C@H]2C[C@H](O)[C@@H](CO)O2)c(=O)n1 [Decitabine] (partner 2 µM)", 0.276),
]

Now consider the entry below.
Enquiry: Report relative viability for COc1nc(C)cnc1NS(=O)(=O)c1cccnc1-c1ccc(-c2nnco2)cc1 [Zibotentan] + C[C@]1(O)C[C@@H](c2nc(-c3ccc4ccc(-c5ccccc5)nc4c3)c3c(N)nccn32)C1 [Linsitinib] (partner 1 µM) please.
Return: 0.544

----------
System: HARA
Experiment: relative viability (nuclei count vs DMSO), 5 days (fraction); higher = more cells survive
Conditions: first compound 0.03162 µM
reported-property: relative viability
Returns: the value as a bare number; no unit string appended.

# molecule, measurement-target, relative viability
rows = [
    ("CCN(CC)CCCCNc1ncc2cc(-c3cc(OC)cc(OC)c3)c(NC(=O)NC(C)(C)C)nc2n1 + CC(=O)c1c(C)c2cnc(Nc3ccc(N4CCNCC4)cn3)nc2n(C2CCCC2)c1=O [Palbociclib] (partner 0.5 µM)", "HARA", 0.243),
    ("O=c1cc(N2CCOCC2)oc2c(-c3cccc4c3sc3ccccc34)cccc12 + CC(C)C[C@H](NC(=O)[C@H](Cc1ccccc1)NC(=O)c1cnccn1)B(O)O [Bortezomib] (partner 0.002 µM)", "HARA", 1.17),
    ("CCN(CC)CCCCNc1ncc2cc(-c3cc(OC)cc(OC)c3)c(NC(=O)NC(C)(C)C)nc2n1 + CC(C)C[C@H](NC(=O)[C@H](Cc1ccccc1)NC(=O)c1cnccn1)B(O)O [Bortezomib] (partner 0.002 µM)", "HARA", 1.12),
]

Now consider the entry below.
Enquiry: Report relative viability for CCN(CC)CCCCNc1ncc2cc(-c3cc(OC)cc(OC)c3)c(NC(=O)NC(C)(C)C)nc2n1 + CS(=O)(=O)CCNCc1ccc(-c2ccc3ncnc(Nc4ccc(OCc5cccc(F)c5)c(Cl)c4)c3c2)o1 [Lapatinib] (partner 2 µM) please.
Return: 0.469

----------
Test system: CAL-12T
Assay: relative viability (nuclei count vs DMSO), 5 days (fraction); higher = more cells survive
Settings: first compound 1 µM
Field 'label' (enum: true (1) / false (0)). Set to true (1) when relative viability is strictly under 0.3; else false (0).

For orientation, consider the following solved cases.
# compound, measurement-target, group
data = [
    ("CCN(CC)CCCCNc1ncc2cc(-c3cc(OC)cc(OC)c3)c(NC(=O)NC(C)(C)C)nc2n1 + Cc1nc(Nc2ncc(C(=O)Nc3c(C)cccc3Cl)s2)cc(N2CCN(CCO)CC2)n1 [Dasatinib] (partner 0.075 µM)", "CAL-12T", "false (0)"),
    ("O=c1cc(N2CCOCC2)oc2c(-c3cccc4c3sc3ccccc34)cccc12 + Cc1nc(NC(=O)N2CCC[C@H]2C(N)=O)sc1-c1ccnc(C(C)(C)C(F)(F)F)c1 [Alpelisib] (partner 2 µM)", "CAL-12T", "false (0)"),
    ("O=c1cc(N2CCOCC2)oc2c(-c3cccc4c3sc3ccccc34)cccc12 + O=C(CCCCCCC(=O)Nc1ccccc1)NO [Vorinostat] (partner 1 µM)", "CAL-12T", "false (0)"),
]

Enquiry: Here's an entry: O=c1cc(N2CCOCC2)oc2c(-c3cccc4c3sc3ccccc34)cccc12 + Cc1cc(Nc2cc(N3CCN(C)CC3)nc(Sc3ccc(NC(=O)C4CC4)cc3)n2)n[nH]1 [Tozasertib] (partner 0.1 µM) . Is its relative viability below 0.3?
Return: true (1)
